- experimentalTarget: T1, Antibody No. 465.1
- T1 construct: also called Ab No. 465.1
- measurementProtocol: peptide blocking ELISA on plate-bound VISTA, peptide 20 ug/mL
The reader will find reported percent reduction in ELISA signal values listed item by item below.

{"columns": ["binder", "percent reduction in ELISA signal / %"],
 "data": [
  ["GEVQTCSERRPIRNL (synthetic overlapping peptide from human VISTA) [Spiked Peptide 10 (GEVQTCSERRPIRNL)]", 4],
  ["YRSSRGEVQTCSERR (synthetic overlapping peptide from human VISTA) [Spiked Peptide 9 (YRSSRGEVQTCSERR)]", 10],
  ["HHHSEHRVHGAMELQ (synthetic overlapping peptide from human VISTA) [Spiked Peptide 25 (HHHSEHRVHGAMELQ)]", 67],
  ["GLESASDHHGNFSIT (synthetic overlapping peptide from human VISTA) [Spiked Peptide 18 (GLESASDHHGNFSIT)]", 4],
  ["GPVDKGHDVTFYKTW (synthetic overlapping peptide from human VISTA) [Spiked Peptide 6 (GPVDKGHDVTFYKTW)]", 4],
  ["DAPSNCVVYPSSSQE (synthetic overlapping peptide from human VISTA) [Spiked Peptide 29 (DAPSNCVVYPSSSQE)]", 14],
  ["VCPEGQNVTLTCRLL (synthetic overlapping peptide from human VISTA) [Spiked Peptide 3 (VCPEGQNVTLTCRLL)]", 7],
  ["CSERRPIRNLTFQDL (synthetic overlapping peptide from human VISTA) [Spiked Peptide 11 (CSERRPIRNLTFQDL)]", 8],
  ["HRVHGAMELQVQTGK (synthetic overlapping peptide from human VISTA) [Spiked Peptide 26 (HRVHGAMELQVQTGK)]", 2],
  ["AMELQVQTGKDAPSN (synthetic overlapping peptide from human VISTA) [Spiked Peptide 27 (AMELQVQTGKDAPSN)]", 3],
  ["VVEIRHHHSEHRVHG (synthetic overlapping peptide from human VISTA) [Spiked Peptide 24 (VVEIRHHHSEHRVHG)]", 43],
  ["CVVYPSSSQESENIT (synthetic overlapping peptide from human VISTA) [Spiked Peptide 30 (CVVYPSSSQESENIT)]", 0],
  ["PIRNLTFQDLHLHHG (synthetic overlapping peptide from human VISTA) [Spiked Peptide 12 (PIRNLTFQDLHLHHG)]", 55],
  ["TCRLLGPVDKGHDVT (synthetic overlapping peptide from human VISTA) [Spiked Peptide 5 (TCRLLGPVDKGHDVT)]", 12],
  ["SSSQESENITAA (synthetic overlapping peptide from human VISTA) [Spiked Peptide 31 (SSSQESENITAA)]", 5],
  ["GHDVTFYKTWYRSSR (synthetic overlapping peptide from human VISTA) [Spiked Peptide 7 (GHDVTFYKTWYRSSR)]", 26]
]}

src = patent US20240132593A1
